# experimental-target: T1, AAV2 (adeno-associated virus 2, UniProt P03135 1-735)
# T1 construct: also called adeno-associated virus serotype 2
# T1 sequence (P03135 whole entry): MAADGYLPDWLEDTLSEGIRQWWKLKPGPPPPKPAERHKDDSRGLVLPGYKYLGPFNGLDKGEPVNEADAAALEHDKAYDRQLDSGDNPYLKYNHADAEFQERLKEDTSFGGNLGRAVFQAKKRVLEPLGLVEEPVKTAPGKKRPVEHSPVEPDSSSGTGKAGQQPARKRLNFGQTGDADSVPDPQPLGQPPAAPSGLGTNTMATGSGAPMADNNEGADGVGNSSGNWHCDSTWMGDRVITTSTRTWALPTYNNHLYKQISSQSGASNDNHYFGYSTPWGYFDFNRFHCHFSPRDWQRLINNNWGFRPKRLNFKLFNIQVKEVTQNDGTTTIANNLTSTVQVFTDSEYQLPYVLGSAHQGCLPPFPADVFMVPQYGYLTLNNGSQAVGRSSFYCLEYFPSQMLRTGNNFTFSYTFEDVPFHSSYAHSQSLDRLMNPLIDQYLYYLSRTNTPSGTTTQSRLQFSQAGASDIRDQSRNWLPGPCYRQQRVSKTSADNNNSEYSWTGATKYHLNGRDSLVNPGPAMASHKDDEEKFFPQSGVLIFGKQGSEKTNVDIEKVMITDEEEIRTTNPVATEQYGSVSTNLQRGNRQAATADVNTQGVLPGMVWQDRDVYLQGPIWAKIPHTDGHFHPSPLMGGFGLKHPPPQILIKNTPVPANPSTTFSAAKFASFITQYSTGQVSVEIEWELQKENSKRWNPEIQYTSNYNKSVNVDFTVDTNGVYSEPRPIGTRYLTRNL
# protocol-notes: SPR, AAV amine-coupled to CM5 chip;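 also: nanobodies flowed as analyte at seven concentrations spanning 1–100 nM over immobilized AAV (500–800 RU), kinetic constants derived by fitting the binding curves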
Would you mind telling me the reported kon of each entry?
Answers are plain numbers, in M⁻¹ s⁻¹.

binder: A4-093 (VHH) VHH: VQLQESGGGLVQTGGSLRLSCAASGSIFIINTMGWYRQRAGKQRELVATVTRGGSTNYADSVKGRFTISRDNAKNTVYLQMNTLRPEDTAVYYCHVDELRQSSWTTSNLWGQGTQVTVSS
kon (M⁻¹ s⁻¹): 22400

-- ask State the recorded kon for this entry: A4-089 (VHH) VHH: VQLQESGGGLVQPGGSLRLSCAASGSNFSINTMGWYRQAPGKQRELVATFTRAGNTNYADSVKGRFTISRDNGKNTVYLQMNSLRPEDTAVYYCHVDEVRDSSWTTSNLWGQGTQVTVSS
-- reply 187000
